Reference source: patent US11034672B1

This listing pairs compounds with measured IC50.
tested_system: EGFR WT (Homo sapiens, UniProt P00533)
Sequence (P00533 25-1210 N540K): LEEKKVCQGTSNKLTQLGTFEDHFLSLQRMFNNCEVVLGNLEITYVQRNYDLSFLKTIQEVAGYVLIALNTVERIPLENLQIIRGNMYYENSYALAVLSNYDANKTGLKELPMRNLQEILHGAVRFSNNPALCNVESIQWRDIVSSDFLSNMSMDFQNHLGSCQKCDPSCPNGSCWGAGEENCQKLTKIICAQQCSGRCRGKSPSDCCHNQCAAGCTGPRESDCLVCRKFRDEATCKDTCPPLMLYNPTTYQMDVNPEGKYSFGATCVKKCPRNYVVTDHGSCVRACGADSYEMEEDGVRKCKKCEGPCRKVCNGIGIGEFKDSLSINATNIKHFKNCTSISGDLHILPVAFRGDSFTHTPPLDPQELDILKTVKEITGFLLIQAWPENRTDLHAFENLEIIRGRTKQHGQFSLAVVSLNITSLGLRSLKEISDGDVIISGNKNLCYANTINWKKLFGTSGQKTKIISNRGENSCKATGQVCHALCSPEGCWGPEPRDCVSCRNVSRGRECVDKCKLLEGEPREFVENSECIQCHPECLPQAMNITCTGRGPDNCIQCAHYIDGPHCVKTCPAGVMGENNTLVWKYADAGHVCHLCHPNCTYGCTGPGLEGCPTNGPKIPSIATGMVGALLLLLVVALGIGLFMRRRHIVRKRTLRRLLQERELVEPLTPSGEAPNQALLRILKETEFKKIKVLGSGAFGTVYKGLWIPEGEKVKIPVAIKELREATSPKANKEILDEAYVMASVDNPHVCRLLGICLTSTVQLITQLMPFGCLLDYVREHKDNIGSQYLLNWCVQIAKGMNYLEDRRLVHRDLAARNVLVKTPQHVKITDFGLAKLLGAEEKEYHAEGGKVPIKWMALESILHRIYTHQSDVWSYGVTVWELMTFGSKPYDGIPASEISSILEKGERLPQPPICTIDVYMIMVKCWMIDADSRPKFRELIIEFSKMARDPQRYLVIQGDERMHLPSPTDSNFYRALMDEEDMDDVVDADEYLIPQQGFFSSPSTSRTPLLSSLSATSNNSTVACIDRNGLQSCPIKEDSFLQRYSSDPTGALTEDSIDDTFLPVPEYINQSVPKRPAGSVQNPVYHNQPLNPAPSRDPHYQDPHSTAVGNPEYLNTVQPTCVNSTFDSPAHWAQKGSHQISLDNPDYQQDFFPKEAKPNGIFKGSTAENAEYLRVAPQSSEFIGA
measurement_notes: BaF3 cell proliferation assay, EGFR WT (Table A)
Assay type: cell-based
run_parameters: potency code, 3 days, CellTiterGlo, read-out: EGFR WT (Activity for Inhibiting EGFR)
quantity: IC50

>>> reported_result("C=CC(=O)Nc1cc2c(Nc3ccc(OCc4ccccn4)c(Cl)c3)ncnc2cc1OCCN1CC2(COC2)C1")
"300 to 500 nM"
>>> reported_result("C=CC(=O)Nc1cc2c(Nc3ccc(OCc4ccccn4)c(Cl)c3)ncnc2cc1N1CCC2(CCN(C)C2)C1 (stereo not shown)")
"300 to 500 nM"
>>> reported_result("C=CC(=O)Nc1cc2c(Nc3ccc(OCc4ccccn4)c(Cl)c3)ncnc2cc1N1CC2(CN(C)C2)C1")
"500 to 1000 nM"
>>> reported_result("C=CC(=O)Nc1cc2c(Nc3ccc(OCc4ccccn4)c(Cl)c3)ncnc2cc1C#CC1CC2(C1)CN(C)C2")
"500 to 1000 nM"
>>> reported_result("C=CC(=O)Nc1cc2c(Nc3ccc(OCc4ccccn4)c(Cl)c3)ncnc2cc1C#CC(C)(C)NC")
"500 to 1000 nM"
>>> reported_result("C=CC(=O)Nc1cc2c(Nc3ccc(OCc4cccc(F)n4)c(Cl)c3)ncnc2cc1OCCN1CCN(C)CC1")
"100 to 200 nM"
>>> reported_result("C=CC(=O)Nc1cc2c(Nc3ccc(OCc4ccccn4)c(Cl)c3)ncnc2cc1OCCN1CCC(OC)C1 (stereo not shown)")
"300 to 500 nM"
